// Minimal inhibitory concentration(MIC), C. albicans IFO. 1385 lookup, one value per entry
# Test system: Candida albicans IFO. 1385
# method: In vitro antifungal activity, microbroth dilution MIC
# Type: cell-based
# condition.summary: RPMI-1640, 35° C., 4 to 48 hours, no growth observed
Report as a plain number; the unit µg/mL is understood.

Using the record for Cc1ccc(C(=C(F)N2CCN(c3ccc(OCC4COC(Cn5ccnc5)(c5ccc(Cl)cc5Cl)O4)cc3)CC2)C(F)(F)F)cc1 (mixture of isomers) , report its Minimal inhibitory concentration(MIC), C. albicans IFO. 1385.
1.56

Using the record for COc1ccc(C(=C(F)OCC2COC(Cn3cncn3)(c3ccc(Cl)cc3Cl)O2)C(F)(F)F)cc1 (mixture of isomers) , report its Minimal inhibitory concentration(MIC), C. albicans IFO. 1385.
6.25

Using the record for FC(Oc1ccc(OCC2COC(Cn3ccnc3)(c3ccc(Cl)cc3Cl)O2)cc1)=C(c1cccc(C(F)(F)F)c1)C(F)(F)F (mixture of isomers) , report its Minimal inhibitory concentration(MIC), C. albicans IFO. 1385.
3.13
